For each entry below, report its GI50 value.
tested on: VCaP cells; experiment: Cellular growth inhibition assay for VCaP cells; type: cell-based; details: Homo sapiens, 72 hours, CellTiter-Glo 2.0

# GI50 of "CCc1cnn2c(NCc3ccc(OCCCN4CCN(CC5CCN(c6ncc(C(=O)N[C@H]7C(C)(C)[C@H](Oc8ccc(C#N)c(Cl)c8)C7(C)C)cn6)CC5)CC4)nc3)cc(-c3ccccc3)nc12" = > 3.5 µM

# GI50 of "CCc1cnn2c(NCc3ccc(OCCCOCCOC4CCN(c5ncc(C(=O)N[C@H]6C(C)(C)[C@H](Oc7ccc(C#N)c(Cl)c7)C6(C)C)cn5)CC4)nc3)cc(N3CCCC[C@H]3CCO)nc12" = < 0.1 µM

# GI50 of "CCc1cnn2c(NCc3ccc(OCCCCCOCCOC4CCN(c5ncc(C(=O)N[C@H]6C(C)(C)[C@H](Oc7ccc(C#N)c(Cl)c7)C6(C)C)cn5)CC4)nc3)cc(N3CCCC[C@H]3CCO)nc12" = > 3.5 µM
